Target: PDE4B (Homo sapiens (Human), UniProt Q07343)
Sequence (Q07343 whole entry): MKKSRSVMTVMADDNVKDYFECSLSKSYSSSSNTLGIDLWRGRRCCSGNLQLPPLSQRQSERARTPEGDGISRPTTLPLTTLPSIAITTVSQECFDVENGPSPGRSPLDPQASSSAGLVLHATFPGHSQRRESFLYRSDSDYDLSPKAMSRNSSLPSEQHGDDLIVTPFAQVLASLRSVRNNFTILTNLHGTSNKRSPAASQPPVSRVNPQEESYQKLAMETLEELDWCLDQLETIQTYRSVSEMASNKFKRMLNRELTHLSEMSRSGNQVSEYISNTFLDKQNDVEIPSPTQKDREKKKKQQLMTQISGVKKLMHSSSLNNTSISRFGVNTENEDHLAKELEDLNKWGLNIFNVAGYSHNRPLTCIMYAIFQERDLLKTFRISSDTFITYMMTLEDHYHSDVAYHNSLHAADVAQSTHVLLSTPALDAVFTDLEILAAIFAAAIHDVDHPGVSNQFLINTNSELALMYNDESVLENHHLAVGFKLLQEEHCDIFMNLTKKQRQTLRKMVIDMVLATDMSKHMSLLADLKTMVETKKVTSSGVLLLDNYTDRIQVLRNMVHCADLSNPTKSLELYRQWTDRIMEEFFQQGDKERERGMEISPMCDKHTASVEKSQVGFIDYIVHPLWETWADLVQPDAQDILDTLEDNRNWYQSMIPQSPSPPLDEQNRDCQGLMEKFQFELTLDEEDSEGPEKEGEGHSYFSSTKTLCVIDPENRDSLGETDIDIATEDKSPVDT
Assay: PDE4 Inhibition In Vitro Assay (PDE4B)
Conditions: human recombinant PDE4B; 15 minutes at 30° C.; 2.5% DMSO
Procedure: PDE4 Inhibition In Vitro Assay The phosphodiesterase assays are performed essentially according to the method described in Loughney, K., et al., J. Biol. Chem., 271, pp. 796-806 (1996). […] The assay is performed in a 96-well microtiter plate format on a Beckman BioMek™ 1000 robotic station. […] The amount of radioactivity released as phosphate is determined in a Wallac MicroBeta Plate™ counter. […]
measuredParameter: pIC50
The value called pIC50 is obtained by taking minus log10 of the concentration in mol/L.

pIC50 measured on `COc1ccc([C@@H]2CN(C(=O)[C@@H](O)CO)C[C@@]2(C)[C@@H](C)O)cc1OC1CN(c2ncccn2)C1` = 8.82

pIC50 measured on `COc1ccc([C@@H]2CN(C(=O)[C@@H](O)CO)C[C@@]2(C)[C@@H](C)O)cc1OC1CN(c2ccc(Cl)cn2)C1` = 9.80

pIC50 measured on `COc1ccc([C@@H]2CN(C(=O)[C@@H](O)CO)C[C@@]2(C)[C@@H](C)O)cc1OC1CN(c2cc(Cl)ncn2)C1` = 9.28

pIC50 measured on `COc1ccc([C@@H]2CN(C(=O)[C@@H](O)CO)C[C@@]2(C)[C@@H](C)O)cc1OC1CN(c2cccnc2)C1` = 8.74

pIC50 measured on `COc1ccc([C@@H]2CN(C(=O)[C@@H](O)CO)C[C@@]2(C)[C@@H](C)O)cc1OC1CN(c2ccncc2)C1` = 8.11

pIC50 measured on `COc1ccc([C@@H]2CN(C(=O)[C@@H](O)CO)C[C@@]2(C)[C@@H](C)O)cc1OC1CN(c2ccc(C#N)cn2)C1` = 9.51

---

Could you please report measured pIC50 for the items listed next?
Biological target: PDE4B (Homo sapiens (Human), UniProt Q07343)
Assay: PDE4 Inhibition In Vitro Assay (PDE4B)
Format: biochemical
Details: human recombinant PDE4B; 15 minutes at 30° C.; 2.5% DMSO
The value called pIC50 is obtained by taking minus log10 of the concentration in mol/L.

pIC50 measured on `COc1ccc([C@@H]2CN(C(=O)[C@@H](O)CO)C[C@@]2(C)[C@@H](C)O)cc1OC1CN(c2cc(C#N)ccn2)C1` = 9.36

pIC50 measured on `[2H]C([2H])([2H])c1ccc(N2CC(Oc3cc([C@@H]4CN(C(=O)[C@@H](O)CO)C[C@@]4(C)[C@@H](C)O)ccc3OC)C2)nc1` = 9.89

pIC50 measured on `COc1ccc([C@@H]2CN(C(=O)[C@@H](O)CO)C[C@@]2(C)[C@@H](C)O)cc1OC1CN(c2ccncn2)C1` = 8.42
